// provenance: paper PMC9482650

target: T1, DLG3_1, Q92796
T1 sequence (Q92796 125-227, limits assumed, looked up): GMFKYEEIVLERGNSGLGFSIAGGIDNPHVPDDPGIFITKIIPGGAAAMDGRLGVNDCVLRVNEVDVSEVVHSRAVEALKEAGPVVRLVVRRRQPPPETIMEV
test: holdup assay
Design: key: below the threshold = too weak to quantify, mostly under pKd 3.1 to 4
condition parameters: plain residues with an end cap or a label only (N-terminal biotin on a linker: ahx)

[
  {
    "binder": "GYDWGPATDL [TJP3, O95049]",
    "pKd": 3.48
  },
  {
    "binder": "PSASCAVTAA [PDLIM4, P50479;P50479-2]",
    "pKd": "below the threshold"
  },
  {
    "binder": "TVICWPGSLV [LNX2, Q8N448]",
    "pKd": 4.01
  },
  {
    "binder": "HNAFLSVTTV [PDZRN4, Q6ZMN7]",
    "pKd": 3.56
  },
  {
    "binder": "RAVEEEESRF [PSCDBP, O60759]",
    "pKd": "below the threshold"
  },
  {
    "binder": "RRRKRKRTYL [HPV49-L2, P36762]",
    "pKd": "below the threshold"
  },
  {
    "binder": "LSDPSVSTVV [GRIN1, Q05586;Q05586-2]",
    "pKd": "below the threshold"
  },
  {
    "binder": "ESLLLGPSNF [SHROOM4, Q9ULL8]",
    "pKd": "below the threshold"
  },
  {
    "binder": "NRKREIFSNF [NHERF2, Q15599]",
    "pKd": "below the threshold"
  },
  {
    "binder": "SDSSGQEYSL [KCTD3, Q9Y597]",
    "pKd": "below the threshold"
  }
]
